Provide the reported Normalized average relative binding affinity(ARB) of each item.
biological target: HLA A*6802 (Homo sapiens, UniProt P04439, A269V/D140Y/D185E/E176V/E277Q/E87N/F33Y/G231S/I121R/I166T/I218V/L180W/L300P/L318F/N151K/P208A/P217A/Q86R/R138H/R169H/S129P/T345S/V36M); assay type: binding

Consider the worked cases shown below.
{"columns": ["sequence-code", "meas-value"],
 "data": [
  ["XXXXXXXRX [3064.0155]", 0.13],
  ["XXXXXXGXX [3064.0126]", 0.071],
  ["XXXXXHXXX [3064.0107]", 0.11],
  ["XXXYXXXXX [3064.0080]", 0.44],
  ["XXXXYXXXX [3064.0100]", 0.27],
  ["XXXXIXXXX [3064.0088]", 0.88]
]}

The following sequences each have a reported value; give each one's Normalized average relative binding affinity(ARB).
1. XXXMXXXXX [3064.0071]
2. XXXXXXNXX [3064.0132]
3. XXXXXXYXX [3064.0140]
4. XXXHXXXXX [3064.0067]

1. 0.55
2. 0.54
3. 0.62
4. 0.30

The following sequences each have a reported value; give each one's Normalized average relative binding affinity(ARB).
1. XXXXXPXXX [3064.0113]
2. XXXXXXXPX [3064.0153]
3. XXXXXXDXX [3064.0123]
4. XXXXXXXDX [3064.0143]
5. XXXXXXQXX [3064.0134]
6. XXXSXXXXX [3064.0076]
7. XXXXXXXVX [3064.0158]
8. XXXXXXXQX [3064.0154]

1: 0.57; 2: 0.33; 3: 0.37; 4: 0.093; 5: 0.45; 6: 1.0; 7: 0.17; 8: 0.14

* * *

Provide the reported Normalized average relative binding affinity (ARB), HLA B*0702 of each item.
target: HLA B*0702 (Homo sapiens, UniProt P01889); assay type: binding; details: positional scanning combinatorial 9-mer library; normalized to 1.0 for the best residue at each position

Consider the worked cases shown below.
{"columns": ["sequence-code", "meas-value"],
 "data": [
  ["XXGXXXXXX [3064.0046]", 0.052],
  ["HXXXXXXXX [3064.0007]", 0.80],
  ["XYXXXXXXX [3064.0040]", 0.0050],
  ["XXXCXXXXX [3064.0062]", 0.18]
]}

The following sequences each have a reported value; give each one's Normalized average relative binding affinity (ARB), HLA B*0702.
1. XXRXXXXXX [3064.0055]
2. XXYXXXXXX [3064.0060]

1: 0.63; 2: 0.061

The following sequences each have a reported value; give each one's Normalized average relative binding affinity (ARB), HLA B*0702.
1. XXXAXXXXX [3064.0061]
2. XXAXXXXXX [3064.0041]
3. FXXXXXXXX [3064.0005]
4. XXCXXXXXX [3064.0042]

0.23
0.0097
0.21
0.047

* * *

target: HLA B*1503 (Homo sapiens, UniProt P01889, A329T/A93T/A95T/C349S/D201E/D98Y/E187L/E204Q/K202T/N87E/Q94N/R155S/R180L/S121R/S35A/V306I/V36M/Y140S/Y91S); test: biochemical; format: binding
outcome-measure: Normalized average relative binding affinity(ARB)
Numbers only.

{"columns": ["sequence-code", "meas-value"],
 "data": [
  ["XXXXXXXYX [3064.0160]", 0.17]
]}

The following sequences each have a reported value; give each one's Normalized average relative binding affinity(ARB).
1. XXXXXXXIX [3064.0148]
2. XXXGXXXXX [3064.0066]
3. XXXXXXXTX [3064.0157]
4. XXXXXXYXX [3064.0140]
5. XXXVXXXXX [3064.0078]

[0.33, 0.19, 0.23, 0.17, 0.64]

The following sequences each have a reported value; give each one's Normalized average relative binding affinity(ARB).
1. XXXXXXDXX [3064.0123]
2. XXXXFXXXX [3064.0085]

1. 0.051
2. 0.78

Measured Normalized average relative binding affinity(ARB), XXXFXXXXX [3064.0065] : 0.41

* * *

molecular target: HLA A*6802 (Homo sapiens, UniProt P04439, A269V/D140Y/D185E/E176V/E277Q/E87N/F33Y/G231S/I121R/I166T/I218V/L180W/L300P/L318F/N151K/P208A/P217A/Q86R/R138H/R169H/S129P/T345S/V36M); type: binding
# class assignment by measured Normalized average relative binding affinity(ARB): Low (below 0.3), Mid (0.3 to below 0.4), High (0.4 or more)

Known results for sequences:
{"columns": ["sequence-code", "class-assignment"],
 "data": [
  ["XXXXXIXXX [3064.0108]", "Mid"],
  ["XXXXXXAXX [3064.0121]", "Mid"],
  ["XXXEXXXXX [3064.0064]", "Low"],
  ["XXXXXMXXX [3064.0111]", "Low"],
  ["XXXXLXXXX [3064.0090]", "High"]
]}

// switching to the query sequence
In plain terms, what class is XXXNXXXXX [3064.0072] ?
Low

* * *

target: HLA B*0702 (Homo sapiens, UniProt P01889); format: binding; conditions: positional scanning combinatorial 9-mer library; normalized to 1.0 for the best residue at each position
outcome-measure: Normalized average relative binding affinity (ARB), HLA B*0702
Numbers only.

{"columns": ["sequence-code", "meas-value"],
 "data": [
  ["XXFXXXXXX [3064.0045]", 0.067]
]}

The following sequences each have a reported value; give each one's Normalized average relative binding affinity (ARB), HLA B*0702.
1. MXXXXXXXX [3064.0011]
2. XXHXXXXXX [3064.0047]
3. XQXXXXXXX [3064.0034]
4. XXKXXXXXX [3064.0049]

1. 0.56
2. 0.39
3. 0.011
4. 0.20

The following sequences each have a reported value; give each one's Normalized average relative binding affinity (ARB), HLA B*0702.
1. SXXXXXXXX [3064.0016]
2. XDXXXXXXX [3064.0023]

1: 0.35; 2: 0.0029

The following sequences each have a reported value; give each one's Normalized average relative binding affinity (ARB), HLA B*0702.
1. XXTXXXXXX [3064.0057]
2. XGXXXXXXX [3064.0026]
3. XXQXXXXXX [3064.0054]

[0.035, 0.0028, 0.19]

The following sequences each have a reported value; give each one's Normalized average relative binding affinity (ARB), HLA B*0702.
1. XXPXXXXXX [3064.0053]
2. XMXXXXXXX [3064.0031]
3. IXXXXXXXX [3064.0008]

[0.014, 0.0028, 0.42]

* * *

molecular target: HLA A*6802 (Homo sapiens, UniProt P04439, A269V/D140Y/D185E/E176V/E277Q/E87N/F33Y/G231S/I121R/I166T/I218V/L180W/L300P/L318F/N151K/P208A/P217A/Q86R/R138H/R169H/S129P/T345S/V36M); assay type: binding
outcome-measure: Normalized average relative binding affinity(ARB)
Answers are plain numbers.

The following sequences each have a reported value; give each one's Normalized average relative binding affinity(ARB).
1. XXXXXDXXX [3064.0103]
2. XXXXXNXXX [3064.0112]
3. XXXXXXTXX [3064.0137]
4. XXXXEXXXX [3064.0084]

[0.69, 0.45, 0.60, 0.20]
